# EXPERIMENTAL SYSTEM: HLA-A*24:02 (Homo sapiens, UniProt P04439, D101N/D140Y/D185E/E176V/E190D/F33S/G103R/G107R/I119L/I121M/I306V/K335N/L105A/L180Q/L300P/N151K/N90K/Q86E/Q94H/R106L/R138H/R89G/T104I/T345S/V100E/W191G/Y123F)
# METHOD: HLA-peptide competition binding assay, A*24:02
# SETUP CONDITIONS: read-out: IC50 nM, target assay A*24:02
Where no end group is shown, it is not given here.
Reported IC50 values for the following sequences.

{"CHAIN SEQUENCE": "ALWGPDPAAAF", "IC50 (nM)": 15100}
{"CHAIN SEQUENCE": "LWMRLLPLL [reference compound]", "IC50 (nM)": 545}
{"CHAIN SEQUENCE": "RLLPLLALL [reference compound]", "IC50 (nM)": 10200}
{"CHAIN SEQUENCE": "ALWMRLLPLL", "IC50 (nM)": 6180}

###

Reported IC50 values for the following sequences.
# EXPERIMENTAL SYSTEM: HLA-A*02:01 (Homo sapiens, UniProt P04439, D140Y/D185E/D98H/E176V/E277Q/G131W/G231S/I119V/I121R/I166T/I218V/L300P/L318F/N151K/N90K/P208A/P217A/Q86G/Q94H/R138H/R169H/T345S)
# METHOD: HLA-peptide competition binding assay, A*02:01
# SETUP CONDITIONS: read-out: IC50 nM, target assay A*02:01
Where no end group is shown, it is not given here.

{"CHAIN SEQUENCE": "RLLPLLALLAL [RLLPLLALLAL, reference compound]", "IC50": "109 nM"}
{"CHAIN SEQUENCE": "VLHELFGMDI [reference compound]", "IC50": "287 nM"}
{"CHAIN SEQUENCE": "NLFLFLFAV [reference compound]", "IC50": "1230 nM"}
{"CHAIN SEQUENCE": "RLLPLLALL [reference compound]", "IC50": "145 nM"}
{"CHAIN SEQUENCE": "ALWGPDPAAA [reference compound]", "IC50": "1010 nM"}
{"CHAIN SEQUENCE": "SLYQLENYC [reference compound]", "IC50": "16900 nM"}
{"CHAIN SEQUENCE": "LLPPLLEHL [reference compound]", "IC50": "444 nM"}
{"CHAIN SEQUENCE": "SLYHVYEVNL [reference compound]", "IC50": "209 nM"}
{"CHAIN SEQUENCE": "MVWESGCTV [reference compound]", "IC50": "126 nM"}
{"CHAIN SEQUENCE": "FMTSSWWRAPL [reference compound]", "IC50": "84 nM"}
{"CHAIN SEQUENCE": "FLIVLSVAL [FLIVLSVAL, reference compound]", "IC50": "26 nM"}
{"CHAIN SEQUENCE": "ALWMRLLPLL", "IC50": "190 nM"}
{"CHAIN SEQUENCE": "SLASLLPHV [reference compound]", "IC50": "9.1 nM"}
{"CHAIN SEQUENCE": "ILMHCQTTL [reference compound]", "IC50": "478 nM"}
{"CHAIN SEQUENCE": "NLAQDLATV [reference compound]", "IC50": "67 nM"}
{"CHAIN SEQUENCE": "VVTGVLVYL [reference compound]", "IC50": "9 nM"}
{"CHAIN SEQUENCE": "ALTAVAEEV [reference compound]", "IC50": "1310 nM"}
{"CHAIN SEQUENCE": "LASEKVYTI [reference compound]", "IC50": "1250 nM"}

###

Reported IC50 values for the following sequences.
# EXPERIMENTAL SYSTEM: HLA-A*01:01 (Homo sapiens, UniProt P04439, A114D/A174V/A182V/D101N/D185E/E176A/E190D/L180R/Q94H/R68K/S129P/T187R/V100A/V91M/W191G)
# METHOD: HLA-peptide competition binding assay, A*01:01
# SETUP CONDITIONS: read-out: IC50 nM, target assay A*01:01
Where no end group is shown, it is not given here.
METRIC NAME: IC50

{"CHAIN SEQUENCE": "GSHLVEALY [reference compound]", "METRIC NAME": "IC50", "VALUE REPORTED": "30300 nM"}
{"CHAIN SEQUENCE": "GERGFFYT", "METRIC NAME": "IC50", "VALUE REPORTED": "> 40000 nM"}
{"CHAIN SEQUENCE": "VCGERGFFYT", "METRIC NAME": "IC50", "VALUE REPORTED": "> 40000 nM"}
{"CHAIN SEQUENCE": "ALWGPDPAAAF", "METRIC NAME": "IC50", "VALUE REPORTED": "> 40000 nM"}
{"CHAIN SEQUENCE": "LVCGERGFFY", "METRIC NAME": "IC50", "VALUE REPORTED": "> 40000 nM"}

###

# EXPERIMENTAL SYSTEM: HLA-A*02:01 (Homo sapiens, UniProt P04439, D140Y/D185E/D98H/E176V/E277Q/G131W/G231S/I119V/I121R/I166T/I218V/L300P/L318F/N151K/N90K/P208A/P217A/Q86G/Q94H/R138H/R169H/T345S)
# METHOD: HLA-peptide competition binding assay, A*02:01
# SETUP CONDITIONS: post-translationally modified insulin peptide; competition binding assay; a dash indicates IC50 >40,000 nM; read-out: A*02:01 binding (IC50 nM) Modified
Where a SMILES comes first, the peptide text is derived from it. [ ]: non-standard residue; d: D form. Cit = NC(=O)NCCC[C@H](N)C(=O)O
Reported IC50 values for the following molecules.

{"MOLECULE": "CC(C)C[C@H](NC(=O)[C@H](CC(=O)O)NC(=O)[C@H](CCC(=O)O)NC(=O)[C@H](C)NC(=O)[C@H](CCC(=O)O)NC(=O)[C@@H](N)CCCNC(N)=O)C(=O)N[C@@H](CCC(N)=O)C(=O)N[C@H](C(=O)NCC(=O)N[C@@H](CCC(N)=O)C(=O)O)C(C)C (H-[Cit]EAEDLQVGQ-OH; N-terminus and C-terminus assumed)", "IC50": "> 40000 nM"}
{"MOLECULE": "C[C@@H](O)[C@H](NC(=O)[C@H](Cc1ccc(O)cc1)NC(=O)[C@H](Cc1ccccc1)NC(=O)[C@H](Cc1ccccc1)NC(=O)CNC(=O)[C@H](CCCNC(N)=O)NC(=O)[C@H](CCC(=O)O)NC(=O)CNC(=O)[C@@H](N)CS)C(=O)O (H-CGE[Cit]GFFYT-OH; N-terminus and C-terminus assumed)", "IC50": "> 40000 nM"}

###

# EXPERIMENTAL SYSTEM: HLA-A*02:01 (Homo sapiens, UniProt P04439, D140Y/D185E/D98H/E176V/E277Q/G131W/G231S/I119V/I121R/I166T/I218V/L300P/L318F/N151K/N90K/P208A/P217A/Q86G/Q94H/R138H/R169H/T345S)
# METHOD: HLA-peptide competition binding assay, A*02:01
# SETUP CONDITIONS: read-out: A*02:01 binding (IC50 nM) WT
Where no end group is shown, it is not given here.
METRIC NAME: IC50 (nM)

{"CHAIN SEQUENCE": "RLLPLLALLA", "VALUE REPORTED": 11}
{"CHAIN SEQUENCE": "LCGSHLVEA", "VALUE REPORTED": 1350}
{"CHAIN SEQUENCE": "MRLLPLLALL", "VALUE REPORTED": 10}
{"CHAIN SEQUENCE": "MRLLPLLAL [MRLLPLLAL]", "VALUE REPORTED": 228}
{"CHAIN SEQUENCE": "VNQHLCGSHL", "VALUE REPORTED": 6640}
{"CHAIN SEQUENCE": "NQHLCGSHLV", "VALUE REPORTED": 7990}
{"CHAIN SEQUENCE": "HLVEALYLVC", "VALUE REPORTED": 692}
{"CHAIN SEQUENCE": "GSLQKRGIV", "VALUE REPORTED": 32700}
{"CHAIN SEQUENCE": "SHLVEALYL", "VALUE REPORTED": 257}
{"CHAIN SEQUENCE": "VEALYLVCG", "VALUE REPORTED": 14300}
{"CHAIN SEQUENCE": "GSHLVEALY [reference compound]", "VALUE REPORTED": 3960}
